Experiment: activity coefficient (dimensionless); of the first substance listed, at infinite dilution; xn = mol fraction of the nth substance listed
Settings: 358.15 K; 101 kPa; Liquid; Chromatography; x1 = 0
Measured activity coefficient of individual entries
QUANTITY: activity coefficient

{"columns": ["MOLECULE", "VALUE REPORTED"],
 "data": [
  ["CCC[N+](=O)[O-] [1-nitropropane] + COCC[N+]1(C)CCCCC1.O=S(=O)([N-]S(=O)(=O)C(F)(F)F)C(F)(F)F", 0.727],
  ["CCCO [propan-1-ol] + COCC[N+]1(C)CCCCC1.O=S(=O)([N-]S(=O)(=O)C(F)(F)F)C(F)(F)F", 1.5],
  ["CCC(C)(C)OC [2-methoxy-2-methylbutane] + COCC[N+]1(C)CCCCC1.O=S(=O)([N-]S(=O)(=O)C(F)(F)F)C(F)(F)F", 3.73],
  ["CC#N [acetonitrile] + COCC[N+]1(C)CCCCC1.O=S(=O)([N-]S(=O)(=O)C(F)(F)F)C(F)(F)F", 0.474],
  ["C1CCCCCC1 [cycloheptane] + COCC[N+]1(C)CCCCC1.O=S(=O)([N-]S(=O)(=O)C(F)(F)F)C(F)(F)F", 10.2],
  ["C#CCCCCC [1-heptyne] + COCC[N+]1(C)CCCCC1.O=S(=O)([N-]S(=O)(=O)C(F)(F)F)C(F)(F)F", 4.15],
  ["C=CCCC [1-pentene] + COCC[N+]1(C)CCCCC1.O=S(=O)([N-]S(=O)(=O)C(F)(F)F)C(F)(F)F", 5.46]
]}

Where these numbers come from: the NIST ThermoML archive (doi:10.1016/j.jct.2012.01.019)
